IC50 reference
Test system: 422866-222-R5-J1-PDC spheroids with HUVEC/MSC, viability
Assay Comment: Anticancer human tumor 422866-222-R5-J1-PDC patient-derived pancreatic adenocarcinoma cell line growth inhibition [GQUAD]
Condition Summary: curve of first compound; second compound 3.16 µM

Consider the reported IC50 for these compounds:
# Compound, Target Under Test, Recorded Value
data = [
    ("O=c1[nH]cc(F)c(=O)[nH]1 + Cc1[nH]c2ccc(F)cc2c1-c1nc2c3cccnc3c3ncccc3c2[nH]1", "422866-222-R5-J1-PDC spheroids with HUVEC/MSC, viability", "> 10 µM"),
    ("Cn1ncnc1[C@H]1c2n[nH]c(=O)c3cc(F)cc(c23)N[C@@H]1c1ccc(F)cc1 + CN(C)c1ccc(Nc2c3ccc(NC(=O)CCN4CCCC4)cc3nc3cc(NC(=O)CCN4CCCC4)ccc23)cc1", "422866-222-R5-J1-PDC spheroids with HUVEC/MSC, viability", "> 0.316 µM"),
]

Shifting focus to the compound that follows.
Query: Please look at this compound and report its IC50: C=CCn1c(=O)c2cnc(Nc3ccc(N4CCN(C)CC4)cc3)nc2n1-c1cccc(C(C)(C)O)n1 + Cc1[nH]c2ccc(F)cc2c1-c1nc2c3cccnc3c3ncccc3c2[nH]1
Result: > 10 µM

* * *

System: 422866-222-R5-J1-PDC spheroids with HUVEC/MSC, viability
Assay Comment: Anticancer human tumor 422866-222-R5-J1-PDC cell line growth inhibition [GQUAD];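 note: spheroids exposed to compounds for seven days before reading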
Condition Summary: curve of first compound; second compound 3.16 µM
pIC50: −log10 of the molar value.
pIC50 reference

# Compound, Target Under Test, pIC50
measured = [
    ("CC(C)n1c(=O)n(C)c2cnc3cc(F)c(-c4ccc(OCCCN5CCCCC5)nc4)cc3c21 + Cc1[nH]c2ccc(F)cc2c1-c1nc2c3cccnc3c3ncccc3c2[nH]1", "422866-222-R5-J1-PDC spheroids with HUVEC/MSC, viability", "< 5.00"),
    ("CC1COCCN1c1cc(C2(O)CC3CCC(C2)O3)c2cnn(-c3ccn[nH]3)c2n1 (stereo not drawn) + CN(C)c1ccc(Nc2c3ccc(NC(=O)CCN4CCCC4)cc3nc3cc(NC(=O)CCN4CCCC4)ccc23)cc1", "422866-222-R5-J1-PDC spheroids with HUVEC/MSC, viability", "< 5.00"),
]

Shifting focus to the compound that follows.
Query: Please look at this compound and report its pIC50: Nc1ccn(C2OC(CO)C(O)C2(F)F)c(=O)n1 (stereo not drawn) + Cc1cnc(CNC(=O)c2c(=O)c3ccc(N4CCCN(C)CC4)nc3n3c2sc2ccccc23)cn1
Result: < 5.00

* * *

System: 422866-222-R5-J1-PDC spheroids with HUVEC/MSC, viability
Assay Comment: Anticancer human tumor 422866-222-R5-J1-PDC cell line growth inhibition [GQUAD];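 note: spheroids exposed to compounds for seven days before reading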
Condition Summary: curve of first compound; second compound 3.16 µM
IC50 reference
# number only, unit µM dropped from output

# Molecule, Units Label, IC50
data = [
    ("COc1cc(C2c3cc4c(cc3C(OC3OC5COC(C)OC5C(O)C3O)C3COC(=O)C23)OCO4)cc(OC)c1O (stereo not drawn) + Cc1[nH]c2ccc(F)cc2c1-c1nc2c3cccnc3c3ncccc3c2[nH]1", "µM", 0.945),
]

Query: Provide measured IC50 on 422866-222-R5-J1-PDC spheroids with HUVEC/MSC, viability for COc1cccc2c1C(=O)c1c(O)c3c(c(O)c1C2=O)CC(O)(C(=O)CO)CC3OC1CC(N)C(O)C(C)O1 (stereo not drawn) + Cc1cnc(CNC(=O)c2c(=O)c3ccc(N4CCCN(C)CC4)nc3n3c2sc2ccccc23)cn1 please.
Result: 1.4

* * *

viability, T/C reference
Tested on: 422866-222-R5-J1-PDC spheroids with HUVEC/MSC, viability
Assay Comment: Anticancer human tumor 422866-222-R5-J1-PDC cell line growth inhibition [GQUAD];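 note: spheroids exposed to compounds for seven days before reading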;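 for viability, T/C: percent viability relative to DMSO vehicle control taken as 100%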
Condition Summary: second compound 3.16 µM; first compound 1 µM; stronger effect = lower value
# number only, unit % dropped from output

# Molecule, viability, T/C, %
measured = [
    ("COc1ccc([C@@H](O)c2cc(-c3ncnc4cc(N5CCOCC5)ccc34)c(F)cc2Cl)nn1 + CN(C)c1ccc(Nc2c3ccc(NC(=O)CCN4CCCC4)cc3nc3cc(NC(=O)CCN4CCCC4)ccc23)cc1", 57.9),
    ("C=CC(=O)N1CCN(c2nc(=O)n(-c3c(C)ccnc3C(C)C)c3nc(-c4c(O)cccc4F)c(F)cc23)C(C)C1 (stereo not drawn) + CN(C)c1ccc(Nc2c3ccc(NC(=O)CCN4CCCC4)cc3nc3cc(NC(=O)CCN4CCCC4)ccc23)cc1", 25.3),
    ("O=C(NO)c1cnc(N2CCN(S(=O)(=O)c3ccc4ccccc4c3)CC2)nc1 + Cc1cnc(CNC(=O)c2c(=O)c3ccc(N4CCCN(C)CC4)nc3n3c2sc2ccccc23)cn1", 56.9),
]

Query: Provide measured viability, T/C on 422866-222-R5-J1-PDC spheroids with HUVEC/MSC, viability for COc1ccc([C@@H](O)c2cc(-c3ncnc4cc(N5CCOCC5)ccc34)c(F)cc2Cl)nn1 + Cc1cnc(CNC(=O)c2c(=O)c3ccc(N4CCCN(C)CC4)nc3n3c2sc2ccccc23)cn1 please.
Result: 57.6

Query: Provide measured viability, T/C on 422866-222-R5-J1-PDC spheroids with HUVEC/MSC, viability for CC1COCCN1c1cc(C2(S(C)(=N)=O)CC2)nc(-c2ccnc3[nH]ccc23)n1 (stereo not drawn) + Cc1cnc(CNC(=O)c2c(=O)c3ccc(N4CCCN(C)CC4)nc3n3c2sc2ccccc23)cn1 please.
Result: 94.7

Query: Provide measured viability, T/C on 422866-222-R5-J1-PDC spheroids with HUVEC/MSC, viability for COc1cc(C2c3cc4c(cc3C(OC3OC5COC(C)OC5C(O)C3O)C3COC(=O)C23)OCO4)cc(OC)c1O (stereo not drawn) + CN(C)c1ccc(Nc2c3ccc(NC(=O)CCN4CCCC4)cc3nc3cc(NC(=O)CCN4CCCC4)ccc23)cc1 please.
Result: 56.2

* * *

pIC50 reference
Test system: 422866-222-R5-J1-PDC spheroids with HUVEC/MSC, viability
Assay Comment: Anticancer human tumor 422866-222-R5-J1-PDC cell line growth inhibition [GQUAD];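 note: spheroids exposed to compounds for seven days before reading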
Condition Summary: curve of first compound; second compound 0.316 µM
pIC50: −log10 of the molar value.

Consider the reported pIC50 for these compounds:
# Compound, pIC50
measured = [
    ("CCc1c2c(nc3ccc(O)cc13)-c1cc3c(c(=O)n1C2)COC(=O)[C@]3(O)CC + Cc1[nH]c2ccc(F)cc2c1-c1nc2c3cccnc3c3ncccc3c2[nH]1", "> 9.00"),
    ("COc1ncnc(C2CC2)c1-c1ncc2cnn(Cc3ccc(-c4nc(C(F)(F)F)cn4C(C)C)cc3)c2n1 + CN(C)c1ccc(Nc2c3ccc(NC(=O)CCN4CCCC4)cc3nc3cc(NC(=O)CCN4CCCC4)ccc23)cc1", "< 5.00"),
]

Shifting focus to the compound that follows.
Query: Please look at this compound and report its pIC50: CC(C)(O)C1CCC(Nc2ccc3ncc(-c4cccc(C(F)(F)F)c4)n3n2)CC1 (stereo not drawn) + Cc1cnc(CNC(=O)c2c(=O)c3ccc(N4CCCN(C)CC4)nc3n3c2sc2ccccc23)cn1
Result: < 5.00

* * *

Test system: 422866-222-R5-J1-PDC spheroids with HUVEC/MSC, viability
Assay Comment: Anticancer human tumor 422866-222-R5-J1-PDC cell line growth inhibition [GQUAD];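 note: spheroids exposed to compounds for seven days before reading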;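 for viability, T/C: percent viability relative to DMSO vehicle control taken as 100%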
Condition Summary: second compound 0.1 µM; first compound 0.1 µM; stronger effect = lower value
viability, T/C reference

Consider the reported viability, T/C for these compounds:
# Compound, viability, T/C
measured = [
    ("O=C(NO)c1cnc(N2CCN(S(=O)(=O)c3ccc4ccccc4c3)CC2)nc1 + Cc1[nH]c2ccc(F)cc2c1-c1nc2c3cccnc3c3ncccc3c2[nH]1", "68.3%"),
    ("Nc1ccn(C2OC(CO)C(O)C2(F)F)c(=O)n1 (stereo not drawn) + CN(C)c1ccc(Nc2c3ccc(NC(=O)CCN4CCCC4)cc3nc3cc(NC(=O)CCN4CCCC4)ccc23)cc1", "70.8%"),
]

Query: Please look at this compound and report its viability, T/C: CC(C)(O)C1CCC(Nc2ccc3ncc(-c4cccc(C(F)(F)F)c4)n3n2)CC1 (stereo not drawn) + CN(C)c1ccc(Nc2c3ccc(NC(=O)CCN4CCCC4)cc3nc3cc(NC(=O)CCN4CCCC4)ccc23)cc1
Result: 87.4%

* * *

Tested on: 422866-222-R5-J1-PDC spheroids with HUVEC/MSC, viability
Assay Comment: Anticancer human tumor 422866-222-R5-J1-PDC cell line growth inhibition [GQUAD];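 note: spheroids exposed to compounds for seven days before reading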;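 for viability, T/C: percent viability relative to DMSO vehicle control taken as 100%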
Condition Summary: second compound 0.316 µM; first compound 3.16 µM; stronger effect = lower value
Source text: DNA G-quadruplex Stabilizer Agents in Combinations in Complex Spheroids A high-throughput screen of multi-cell type tumor spheroids was designed to identify active combinations of DNA G-quadruplex stabilizer agents and targeted small molecules. […] Compounds. […] If the clinical Cmax for an agent had not been determined, the highest concentration tested was 10 microM. […]
Assay Endpoint: viability, T/C (%)
# number only, unit % dropped from output

# Compound, viability, T/C [%]
rows = [
    ("CC(C)n1c(=O)n(C)c2cnc3cc(F)c(-c4ccc(OCCCN5CCCCC5)nc4)cc3c21 + CN(C)c1ccc(Nc2c3ccc(NC(=O)CCN4CCCC4)cc3nc3cc(NC(=O)CCN4CCCC4)ccc23)cc1", 88.8),
    ("COc1cc(C2c3cc4c(cc3C(OC3OC5COC(C)OC5C(O)C3O)C3COC(=O)C23)OCO4)cc(OC)c1O (stereo not drawn) + Cc1[nH]c2ccc(F)cc2c1-c1nc2c3cccnc3c3ncccc3c2[nH]1", 45.5),
]

Query: Please look at this compound and report its viability, T/C: C=CCn1c(=O)c2cnc(Nc3ccc(N4CCN(C)CC4)cc3)nc2n1-c1cccc(C(C)(C)O)n1 + CN(C)c1ccc(Nc2c3ccc(NC(=O)CCN4CCCC4)cc3nc3cc(NC(=O)CCN4CCCC4)ccc23)cc1
Result: 34.9
